- system_name: T1, His-tagged human CD38 (ACRO Biosystems cat #CD8-H5224) (human, UniProt P28907 43-300)
- T1 construct: bought recombinant protein with His tag
- test_name: SPR, captured scFv-Fc, His-CD38 analyte;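 note: SPR on a Carterra LSA, scFv-Fc captured by anti-human Fc on HC30M chip, His-tagged CD38 (human, mouse, cynomolgus) flowed as analyte in eight 1:2 steps from 400 nM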
property: Kd (nM)

>>> measured_result("40566p1.B12 (scFv, V domains shown, tested as scFv-Fc supernatant) VH: DVQLVESGGGVVRPGESLRLSCAASGFTFDNYDMTWVRQAPGEGLEWVSFISSRGIFTYYADSVKGRFTISRDNSKNTLYLQMNSLRAEDTAIYYCAKDSGEYYFFDYWGLGTLVTVSS VL: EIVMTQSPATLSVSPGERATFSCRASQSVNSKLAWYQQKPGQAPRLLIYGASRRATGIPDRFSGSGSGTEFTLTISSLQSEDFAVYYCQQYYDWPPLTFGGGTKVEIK")
470000
>>> measured_result("40596p1.A5 (scFv, V domains shown, tested as scFv-Fc supernatant) VH: EVQLLESGGGLVQPGGSLRLSCAASGFDFSNNAMSWVRQAPGKGLEYVAGSGWSGSFIFYADSVKGRFTVSRDNSENTLYLQMNSLRAEDTAVYYCAKNPGFGEMDVWGQGTTVTVSS VL: EIVLTQSPGSLSLSPGERATLRCRASQSIGSNLAWYQQKPGQAPSLLIYGASTRAADIPDRFSGSGSGTEFTLTITSLQSEDFAVYYCQQYNSWPPLTFGGGTKVEIK")
75.8
>>> measured_result("40596p1.B1 (scFv, V domains shown, tested as scFv-Fc supernatant) VH: EVQLLESGGGLVEPGGSLRLSCAASGFDFSTYAMTWVRQAPGKGLEWVAGNGWSGSFIYYADSVKGRFTISRDNSKNTLYLQMNSLRAEDTAVYYCTRNPGFGEMDVWGQGTTVTVSS VL: EIVLTQSPGTLRLSPGERATLSCKASQTVGTTLAWYQQKPGQAPRLLIYGASTRATGIPDRFSGSGSGTEFTLTISSLQSEDFADYYCQQYKSWPPLTFGGGTKVEIK")
46600
>>> measured_result("40596p1.G10 (scFv, V domains shown, tested as scFv-Fc supernatant) VH: EVQLLESGGGLVQPGGSLRLSCAAPGFDFSKNAMSWVRQAPGKGLEYVAGSGWSGSFIFYADSVKGRFTVSRDNSENTLYLQMSSLRAEDTAVYYCAKNPGFGEMDVWGQGTTVTVSS VL: EIVLTQSPGSLFLSPGERATLTCRASQTIGSNLAWYQQKFGQAPRLLIYGASTRAADIPDRFSGSGSGTEFTLTISSLQSEDFAVYYCQQYNSWPPLTFGGGTKVEIK")
67.8
>>> measured_result("40769p1.1.B12 (scFv, V domains shown, tested as scFv-Fc supernatant) VH: EVQLLESGGGLIQPGGSLRLSCTASGFDFSSYGMHWVRQAPGKGLEWVGIISDSGGTTYYADSVKGRFTISRDNSKNTMYLQMNSLRAEDTALYYCASYIMDVWGQGITVTVSS VL: QSVLTQPPSASGTPGQRVTISCSGSSSNVGGNSVYWYQQLPGTAPKLLFYGNHRRPSGVPDRFSGSKSGTSASLAISGLQSEDEADYYCAVWDDSLNAWVFGGGTKLTVL")
32.4

All figures here come from patent US20220306762A1.
